Cited source: PubChem BioAssay AID1159580

assay: chemical genetic growth profiling, strain panel (AID 1159580);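 note: tested at 20 µM; growth read once vehicle control cultures reached saturation at 30 °C; lower values mean less growth of the strain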; settings: S. cerevisiae deletion strains, growth OD, locus YNL307C, strain MCK1 (second series)
Screen size: about 5,500 compounds; about 2,000 (36%) were called active. Inconclusive results (about 18%) are left out. Cut-off read from the data, not from the text of the source: active = normalized growth mostly below about 0.91 (no sharp cut-off); inconclusive = no clear call, values can overlap the other calls; inactive = mostly above about 0.92. The list shows a part of the results.
Answer with one of the outcomes given here: T (active), F (inactive)

Examples with answers:
{"columns": ["Compound", "Assigned category"],
 "data": [
  ["C=CC(=O)N1CCc2cc([N+](=O)[O-])ccc21", "T"],
  ["Cc1oc2c(F)c(F)c(F)c(F)c2c1C(=O)ONC(N)c1ccc(OS(=O)(=O)N(C)C)cc1 (stereo not given)", "F"],
  ["O=C(Nc1cc(Cl)cc(Cl)c1)Nc1cc(-c2cccs2)[nH]n1", "F"],
  ["CC1=CC(=O)C(CCOCCC2=CC(=O)C(C)=CC2=O)=CC1=O", "F"],
  ["NC(N)=Nc1nc(-c2cc(Cl)sc2Cl)cs1", "F"],
  ["O=C(C=C(O)c1ccc(Br)cc1)C(=O)Nc1ccccc1", "T"],
  ["Cc1c(C(=O)N2CCCCC2)cc(-c2ccccc2)n1-c1ccccc1", "F"],
  ["O=C(NCc1ccco1)c1ccc(Oc2cc(Cl)cc(Cl)c2)o1", "F"],
  ["Cc1c(Cl)cccc1NC(=S)N1CCCN(c2nc3ccc(Cl)cc3s2)CC1", "F"]
]}

// next entry
Outcome logged for `Cn1cncc1S(=O)(=O)/C(C#N)=C/c1ccccc1Sc1ccc(Cl)cc1` in this assay:
F
